- TESTED SYSTEM: JAK-2 enzyme (Homo sapiens, UniProt O60674)
- Sequence (O60674 whole entry, species assumed): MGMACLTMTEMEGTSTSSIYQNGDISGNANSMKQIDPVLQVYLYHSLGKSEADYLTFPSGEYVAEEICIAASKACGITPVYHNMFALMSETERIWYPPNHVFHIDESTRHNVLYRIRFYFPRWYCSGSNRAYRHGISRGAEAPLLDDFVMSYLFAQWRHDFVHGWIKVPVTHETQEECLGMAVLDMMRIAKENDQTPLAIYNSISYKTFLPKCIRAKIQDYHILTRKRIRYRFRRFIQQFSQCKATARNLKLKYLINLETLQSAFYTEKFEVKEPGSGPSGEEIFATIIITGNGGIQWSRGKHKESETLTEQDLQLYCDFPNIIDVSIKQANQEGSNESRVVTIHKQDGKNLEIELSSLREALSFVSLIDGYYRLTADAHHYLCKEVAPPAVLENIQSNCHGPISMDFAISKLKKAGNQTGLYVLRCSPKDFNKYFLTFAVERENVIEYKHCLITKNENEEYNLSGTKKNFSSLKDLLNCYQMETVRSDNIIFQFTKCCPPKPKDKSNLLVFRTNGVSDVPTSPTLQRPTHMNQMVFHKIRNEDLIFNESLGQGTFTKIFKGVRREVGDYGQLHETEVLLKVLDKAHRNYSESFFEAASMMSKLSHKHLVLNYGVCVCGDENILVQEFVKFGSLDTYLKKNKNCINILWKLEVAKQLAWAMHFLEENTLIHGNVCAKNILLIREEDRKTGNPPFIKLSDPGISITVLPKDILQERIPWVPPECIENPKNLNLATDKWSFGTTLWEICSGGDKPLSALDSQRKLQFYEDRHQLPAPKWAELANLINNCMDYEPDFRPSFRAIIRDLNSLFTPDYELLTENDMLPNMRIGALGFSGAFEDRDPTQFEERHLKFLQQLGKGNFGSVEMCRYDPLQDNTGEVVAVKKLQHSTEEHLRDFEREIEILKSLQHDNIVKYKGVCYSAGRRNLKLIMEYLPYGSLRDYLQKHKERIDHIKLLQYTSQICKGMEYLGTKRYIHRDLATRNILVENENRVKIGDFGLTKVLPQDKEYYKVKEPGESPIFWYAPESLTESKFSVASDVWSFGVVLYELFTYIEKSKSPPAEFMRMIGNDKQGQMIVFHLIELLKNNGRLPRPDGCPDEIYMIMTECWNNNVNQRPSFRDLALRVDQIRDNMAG
- TEST DETAILS: JAK2 inhibition assay (radiometric 33P filter assay)
- Type: biochemical
- ASSAY SETUP: 15 μM poly(Glu)4Tyr, 12 μM ATP; read-out: JAK2 inhibition data (Ki)
This listing pairs compounds with measured Ki.
MEASUREMENT KIND: Ki

COMPOUND | REPORTED MEASUREMENT
CC(=O)N1CCCN(c2cc(-n3nc(Nc4ccc(NC(=O)NC(C)C)cc4)nc3N)ncn2)CC1 [Compound 86] | < 50 nM
CC(=O)N1CCCN(c2cc(-n3nc(Nc4ccc(NC(=O)OCC(C)(C)C)cc4)nc3N)ncn2)CC1 [Compound 95] | < 50 nM
CCCOC(=O)N1CCN(c2ccc(Nc3nc(N)n(-c4ccnc(N5CCCN(C(=O)OC(C)C)CC5)c4)n3)cc2)CC1 [Compound 161] | 50 to 500 nM
CC(=O)N1[C@H](C)CN(c2cc(-n3nc(Nc4ccc(N5CCN(C(=O)OCC(C)(C)C)CC5)cc4)nc3N)ncn2)C[C@@H]1C [Compound 57] | < 50 nM
